I'd be grateful if you could share measured CVS-11 neutralizing antibody titer (RFFIT), nM IC50 for these entries.
- Assay target: Rabies virus glycoprotein G, Challenge Virus Standard (CVS)-11 strain (Rabies virus, strain CVS-11 (genotype 1 Lyssavirus)) (UniProt O92284)
- Sequence (O92284 20-524 limits assumed): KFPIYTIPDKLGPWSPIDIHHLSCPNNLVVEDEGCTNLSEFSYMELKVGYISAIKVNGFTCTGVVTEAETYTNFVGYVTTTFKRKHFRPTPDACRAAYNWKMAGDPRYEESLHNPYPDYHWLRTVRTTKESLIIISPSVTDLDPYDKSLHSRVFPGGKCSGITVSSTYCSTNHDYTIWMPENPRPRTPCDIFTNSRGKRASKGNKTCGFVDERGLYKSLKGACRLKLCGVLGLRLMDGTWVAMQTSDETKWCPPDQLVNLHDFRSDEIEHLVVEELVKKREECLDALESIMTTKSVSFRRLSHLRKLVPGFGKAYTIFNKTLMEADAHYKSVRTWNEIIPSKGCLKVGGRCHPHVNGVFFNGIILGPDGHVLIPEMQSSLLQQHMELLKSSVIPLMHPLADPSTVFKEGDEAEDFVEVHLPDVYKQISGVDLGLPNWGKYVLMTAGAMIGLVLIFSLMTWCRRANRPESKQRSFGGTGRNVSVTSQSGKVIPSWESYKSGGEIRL
- Assay method text: cell-based or functional assay
Numbers only, in nM.

Study these solved cases before continuing.
>  <Binder>
LG212B2 (VHH) VHH: EMQLVESGGGLVQAGDSLRLSCAASGDTFSWYVMAWFRQAPGKEREFVTWINRSGASTYYADSVKGRFTIFRDNDKNTVYLQMNSLKPEDTAVYYCAAGGFYGLRTTEERYDTWGQGTQVTVSS

>  <Unit descriptor>
nM

>  <Result value>
634

$$$$
>  <Binder>
LG212G2 (VHH) VHH: EVQLVESGGGLVQPGGSLRLSCAASGFTFGSHDMSWVRQAPGKGSEWVSGIKSGGGSTLYADSVKGRFAISRDNAKNTLYLQMNSLKPEDTAVYYCATDLYGSTWYPGEDRGTQVTVSS

>  <Unit descriptor>
nM

>  <Result value>
250

$$$$

Now consider a different binder.
For this binder ( LG213E6 (VHH) VHH: EVQLVESGGGLVQAGASLRLSCAASGSTLSRYGVGWFRQAPGKERELVASVDWSGSRTYYADSVKGRFTISRDNAKNTGYLQMNSLKPDDTAVYYCAADSSVVPGIEKYDDWGLGTQVTVSS ), measured CVS-11 neutralizing antibody titer (RFFIT), nM IC50 is 13.7
